So I've got IC50 readings for PHD2 (Homo sapiens), take a look.
value kind: IC50

[[record]]
compound = "N#Cc1ccc(CNC(=O)c2ncc3nc(N4CC(N)C4)ccc3c2O)cn1 [Example 128]"
value_kind = "IC50"
value_measured = "20 to 100 nM"

[[record]]
compound = "CC(C)(C)OC(=O)NC1CCN(c2ccc3c(O)c(C(=O)NCc4ccc(C#N)nc4)ncc3n2)C1=O (stereo not shown) [Example 144]"
value_kind = "IC50"
value_measured = "5 to 20 nM"

[[record]]
compound = "N#Cc1ccc(CNC(=O)c2ncc3nc(N4CC[C@H](N)C4)ccc3c2O)cn1 [Example 126]"
value_kind = "IC50"
value_measured = "< 5 nM"

[[record]]
compound = "C[C@H]1CN(C(=O)OC(C)(C)C)CCN1c1ccc2c(O)c(C(=O)NCc3ccc(C#N)nc3)ncc2n1 [Example 139]"
value_kind = "IC50"
value_measured = "< 5 nM"

[[record]]
compound = "CC(C)(C)OC(=O)N[C@@H]1CN(c2ccc3c(O)c(C(=O)NCc4ccc(C#N)nc4)ncc3n2)C[C@@H]1F [Example 142]"
value_kind = "IC50"
value_measured = "5 to 20 nM"

[[record]]
compound = "CC1(OC(=O)N2CCN(c3ccc4c(O)c(C(=O)NCc5ccc(C#N)nc5)ncc4n3)CC2)CC1 [Example 137]"
value_kind = "IC50"
value_measured = "< 5 nM"

[[record]]
compound = "CC(C)(C)OC(=O)N1CCN(c2ccc3c(O)c(C(=O)NCc4ccc(C#N)nc4)ncc3n2)C[C@@H]1C#N [Example 132]"
value_kind = "IC50"
value_measured = "< 5 nM"

